Experiment: Cytotoxicity against mock infected Homo sapiens (human) MT4 cells assessed as cell viability by MTT assay
Assay type: cell-based
quantityKind: CC50

molecule=O=C(OCCN1C(=O)c2ccccc2C1=O)c1cccc(F)c1 observedresult="> 100 µM"
molecule=Cc1cc(C(=O)OCCN2C(=O)c3ccccc3C2=O)c(C)o1 observedresult="> 100 µM"
molecule=O=C(OCN1C(=O)c2ccccc2C1=O)c1cc(F)ccc1F observedresult="> 100 µM"
molecule=O=C(OCCN1C(=O)c2ccccc2C1=O)c1ccc(Br)cc1 observedresult="> 100 µM"
molecule=O=C(OCCN1C(=O)c2ccccc2C1=O)c1cc(F)ccc1F observedresult="> 100 µM"
molecule=O=C(OCCN1C(=O)c2ccccc2C1=O)c1cc(Cl)ccc1F observedresult="> 100 µM"
molecule=O=C(OCCN1C(=O)[C@H]2CC=CC[C@H]2C1=O)c1ccc(Cl)c([N+](=O)[O-])c1 observedresult="36 µM"
molecule=Cc1cccc(C(=O)OCCN2C(=O)c3ccccc3C2=O)c1 observedresult="> 100 µM"
molecule=O=C(OCCc1c[nH]c2ccccc12)c1ccc(Cl)c([N+](=O)[O-])c1 observedresult="6 µM"
molecule="O=C(OC1Cc2cccc3cccc1c23)c1ccc(Cl)c([N+](=O)[O-])c1 (racemic)" observedresult="1.6 µM"
molecule=O=C(OCCN1C(=O)c2ccccc2C1=O)c1ccc2ccccc2c1 observedresult="> 100 µM"
molecule="CC(CN1C(=O)c2ccccc2C1=O)OC(=O)c1ccc(Cl)c([N+](=O)[O-])c1 (racemic)" observedresult="34 µM"

----------
System: Human immunodeficiency virus 1
Assay: Antiviral activity against wild type Human immunodeficiency virus 1 infected human MT4 cells assessed as inhibition of virus-induced cytopathic effect after 4 days by MTT assay
Assay type: functional, organism-based
Conditions: Human immunodeficiency virus 1, MT4, 96 h
Documented EC50 across a set of compounds
quantityKind: EC50

compound=Cc1ccc2c(c1)C(=O)N(CCOC(=O)c1ccc(Cl)c([N+](=O)[O-])c1)C2=O measuredon="Human immunodeficiency virus 1" quantitykind=EC50 observedresult="> 81 µM"
compound=O=C(OCCN1C(=O)c2ccccc2C1=O)c1cc([N+](=O)[O-])ccc1F measuredon="Human immunodeficiency virus 1" quantitykind=EC50 observedresult="> 100 µM"
compound=O=C(OCCN1C(=O)c2ccccc2C1=O)c1cccc([N+](=O)[O-])c1 measuredon="Human immunodeficiency virus 1" quantitykind=EC50 observedresult="69 µM"
compound=O=C(/C=C/c1ccccc1)OCCN1C(=O)c2ccccc2C1=O measuredon="Human immunodeficiency virus 1" quantitykind=EC50 observedresult="50 µM"
compound=Cc1cccc(C(=O)OCCN2C(=O)c3ccccc3C2=O)c1 measuredon="Human immunodeficiency virus 1" quantitykind=EC50 observedresult="82 µM"
compound=CC(C)(C)c1ccc2c(c1)C(=O)N(CCOC(=O)c1cc(F)ccc1F)C2=O measuredon="Human immunodeficiency virus 1" quantitykind=EC50 observedresult="> 100 µM"
compound=CC(C)(C)c1ccc(C(=O)OCCN2C(=O)c3ccccc3C2=O)cc1 measuredon="Human immunodeficiency virus 1" quantitykind=EC50 observedresult="> 92 µM"
compound="O=C(OC1Cc2cccc3cccc1c23)c1ccc(Cl)c([N+](=O)[O-])c1 (racemic)" measuredon="Human immunodeficiency virus 1" quantitykind=EC50 observedresult="> 100 µM"
compound="CC(COC(=O)c1cc(F)ccc1F)N1C(=O)c2ccccc2C1=O (racemic)" measuredon="Human immunodeficiency virus 1" quantitykind=EC50 observedresult="> 100 µM"
compound=O=C(OCCN1C(=O)c2ccccc2C1=O)c1ccc(F)cc1F measuredon="Human immunodeficiency virus 1" quantitykind=EC50 observedresult="> 100 µM"

Just for reference, ChEMBL document CHEMBL3045881 is where these values come from.
